Data provenance: patent US20240018237A1

Target: T1, human ROR1 (full-length, on the cell surface) (human, UniProt Q01973 30-937)
T1 construct: whole, on cells; the tumour cell lines carry their own ROR1; also called Ba/F3-ROR1 cells; Jeko-1
T1 sequence (Q01973 30-937): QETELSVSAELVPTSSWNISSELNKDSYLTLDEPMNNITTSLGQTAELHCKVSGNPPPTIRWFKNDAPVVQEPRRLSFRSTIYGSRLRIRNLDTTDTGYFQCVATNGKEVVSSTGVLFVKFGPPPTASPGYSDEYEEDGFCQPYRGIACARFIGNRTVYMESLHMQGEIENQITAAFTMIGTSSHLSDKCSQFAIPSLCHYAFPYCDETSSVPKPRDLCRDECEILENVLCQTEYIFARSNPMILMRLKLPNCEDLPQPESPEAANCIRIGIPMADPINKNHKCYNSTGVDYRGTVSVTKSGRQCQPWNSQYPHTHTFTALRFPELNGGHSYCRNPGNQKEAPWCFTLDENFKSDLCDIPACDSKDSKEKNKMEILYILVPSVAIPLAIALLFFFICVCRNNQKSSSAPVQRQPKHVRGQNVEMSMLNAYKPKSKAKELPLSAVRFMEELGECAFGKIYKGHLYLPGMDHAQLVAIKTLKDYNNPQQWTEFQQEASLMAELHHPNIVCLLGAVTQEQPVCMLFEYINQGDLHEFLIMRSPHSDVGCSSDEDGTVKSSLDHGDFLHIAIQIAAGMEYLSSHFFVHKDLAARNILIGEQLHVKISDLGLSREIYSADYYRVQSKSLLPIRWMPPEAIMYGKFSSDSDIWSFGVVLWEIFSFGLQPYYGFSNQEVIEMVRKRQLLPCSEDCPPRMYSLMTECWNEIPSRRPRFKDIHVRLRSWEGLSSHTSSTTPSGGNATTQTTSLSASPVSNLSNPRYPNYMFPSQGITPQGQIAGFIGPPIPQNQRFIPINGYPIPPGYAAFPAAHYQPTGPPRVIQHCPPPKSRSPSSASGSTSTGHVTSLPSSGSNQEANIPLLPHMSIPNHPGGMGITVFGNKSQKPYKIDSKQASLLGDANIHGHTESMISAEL
Assay: flow cytometry, HT-29 cells
Description: The affinities of the anti-human ROR1 humanized antibodies to Ba/F3-ROR1, Jeko-1, HT-29 and A549 cells were detected by flow cytometry. The specific experimental steps were as follows: the BaBF3-ROR1, Jeko-1, HT-29 and A549 cells were incubated with the purified humanized antibodies of different concentration gradients on ice for 30 minutes, and the anti-ROR1 antibody UC961 with human IgG1 and the anti-TNP antibody were used as positive and negative controls, respectively.
property_label: EC50 (nM)
Lab book: enter the figure in nM, no units written.

binder: 19F6-Hu35V7 (antibody, human IgG1, kappa, V domains shown, humanized, human IgG1 / kappa) VH: QVQLQESGPGLVKPSQTLSLTCTVSGYSITSDYAWNWIRQFPGKGLEWIGYISYSGSIRYNPSLKSRVTISRDTSKNQFSLKLSSVTAADTAVYYCARGEITYYFDYWGQGTLVTVSS VL: ETTLTQSPAFMSATPGDKVTISCKASTSIDDDMNWYQQKPGKPPKLIISEGNTLRPGIPPRFSSSGYGTDFTFTINNIQSEDAATYYCLQSNDLPLTFGQGTKLEIKR
EC50 / nM: 0.18

# evaluate next
What value of EC50 has been recorded for this entry: 19F6-Hu32 (antibody, human IgG1, kappa, V domains shown, humanized, human IgG1 / kappa) VH: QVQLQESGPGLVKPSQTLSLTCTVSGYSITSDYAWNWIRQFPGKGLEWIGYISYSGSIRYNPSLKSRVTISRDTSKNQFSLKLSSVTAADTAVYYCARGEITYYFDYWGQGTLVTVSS VL: DIQMTQSPSSLSASVGDRVTITCITTTDIDDDMNWYQQKPGKAPKLLISEGNTLQSGVPSRFSGSGYGTDFTLTISSLQPEDFATYYCLQSNDLPLTFGQGTKLEIKR
0.09
